Tested on: TZM-bl cells
ASSAY_NOTES: Cytotoxicity assay
Type: cell-based
CONDITIONS_USED: read-out: Cytotoxicity CC50 TZM-bl; TZM-bl cells, 72 h
Measured CC50 of individual entries
Supply the numeric figure in µM, leaving out any unit text.

Worked set:
compound="COc1cc2nc(NCc3ccc(CNCCCNC4CCCCCC4)cc3)nc(NC3CCNCC3)c2cc1OC [Compound 14]" numeric_readout=19.3
compound="COc1ccc2c(NC3CCNCC3)nc(NCc3ccc(CNCCCN4CCCCC4)cc3)nc2c1 [Compound 16]" numeric_readout=32.2

Prompt: Reported CC50 for TZM-bl cells, given COc1ccc2nc(NCc3ccc(CNCCCN4CCCCC4)cc3)nc(NC3CCNCC3)c2c1 [Compound 15] ?
Completion: 24.5

----------
MEASURED_TARGET: UniProt P61073
Sequence (P61073 whole entry): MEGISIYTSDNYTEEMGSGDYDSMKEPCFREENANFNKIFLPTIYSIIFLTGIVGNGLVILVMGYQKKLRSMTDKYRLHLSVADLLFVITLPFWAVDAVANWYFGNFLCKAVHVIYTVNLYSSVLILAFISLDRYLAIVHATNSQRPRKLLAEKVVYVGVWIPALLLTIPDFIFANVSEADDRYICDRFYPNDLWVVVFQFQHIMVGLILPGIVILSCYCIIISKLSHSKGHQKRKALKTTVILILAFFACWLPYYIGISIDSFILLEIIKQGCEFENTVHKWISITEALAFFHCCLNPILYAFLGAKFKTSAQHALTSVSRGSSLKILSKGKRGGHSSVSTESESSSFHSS
ASSAY_NOTES: Radioligand [125I]SDF-1α binding to hCXCR4-transfected HEK293 membrane
CONDITIONS_USED: relative to compound 18
// values below are reported fold decrease in CXCR4 binding affinity compared to compound 18

Prompt: Reported fold decrease in CXCR4 binding affinity compared to compound 18, molecule CN1CCN(c2nc(NCc3ccc(CNCCCNC4CCCCC4)cc3)c3ncn(C)c3n2)CC1 [Compound 20] : ____
Completion: 4−5 fold

----------
MEASURED_TARGET: UniProt:P51681
ASSAY_NOTES: CCR5 radioligand binding assay
READOUT_TYPE: IC50

Prompt: Which IC50 value belongs to c1cc(CNCCCNC2CCCCC2)cc(CNc2nc(N3CCNCC3)nc3[nH]cnc23)c1 [Compound 25] ?
Completion: > 10 µM

----------
Tested on: TZM-bl cells
ASSAY_NOTES: Cytotoxicity assay
Format: cell-based
READOUT_TYPE: Selective Index CC50/EC50 TZM-bl
A bare number is all that is needed in reply.

smiles_record=COc1ccc2c(NC3CCNCC3)nc(NCc3ccc(CNCCCN4CCCCC4)cc3)nc2c1 numeric_readout=1193
smiles_record=COc1cc2nc(NCc3ccc(CNCCCNC4CCCCCC4)cc3)nc(NC3CCNCC3)c2cc1OC numeric_readout=399

Now let's try a different one.
Prompt: Can you share its Selective Index CC50/EC50 TZM-bl? I mean this molecule: "COc1ccc2nc(NCc3ccc(CNCCCN4CCCCC4)cc3)nc(NC3CCNCC3)c2c1"
Completion: 261

----------
MEASURED_TARGET: UniProt:P41597
Sequence (P41597 whole entry, species assumed): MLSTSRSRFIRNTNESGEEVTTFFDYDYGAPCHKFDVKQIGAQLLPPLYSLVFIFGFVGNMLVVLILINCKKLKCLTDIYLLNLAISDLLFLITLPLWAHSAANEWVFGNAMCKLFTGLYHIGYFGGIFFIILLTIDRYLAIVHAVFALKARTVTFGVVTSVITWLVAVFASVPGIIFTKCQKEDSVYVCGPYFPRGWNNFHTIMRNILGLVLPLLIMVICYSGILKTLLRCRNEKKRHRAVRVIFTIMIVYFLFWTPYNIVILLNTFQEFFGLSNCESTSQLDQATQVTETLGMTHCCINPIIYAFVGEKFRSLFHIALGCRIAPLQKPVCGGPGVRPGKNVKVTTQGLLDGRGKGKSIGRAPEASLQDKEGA
ASSAY_NOTES: CCR2 radioligand binding assay
CONDITIONS_USED: read-out: IC50 CCR2
READOUT_TYPE: IC50

Prompt: Would you kindly share the measured IC50 for "c1nc2c(NCc3ccc(CCNCCCNC4CCCCC4)cc3)nc(N3CCNCC3)nc2[nH]1" ?
Completion: > 10 µM

----------
ASSAY_NOTES: Cytotoxicity assay
Type: cell-based, human
CONDITIONS_USED: human, CEM cells (T-lymphoblast leukemia)
Measured CC50 at 72 h, listed per entry.
Report the value in µM with no unit label.

smiles_record=COc1ccc2nc(NCc3ccc(CNCCCNC4CCCCCC4)cc3)nc(NC3CCNCC3)c2c1 numeric_readout=6.5
smiles_record=CN1CCN(c2nc(NCc3ccc(CNCCCNC4CCCCC4)cc3)c3ncn(C)c3n2)CC1 numeric_readout=13.8
smiles_record=COc1cc2nc(NCc3ccc(CNCCCNC4CCCCC4)cc3)nc(NC3CCNCC3)c2cc1OC numeric_readout=17.5

Query molecule follows.
Prompt: CC50 at 72 h for "COc1ccc2nc(NCc3ccc(CNCCCNC4CCCCC4)cc3)nc(NC3CCNCC3)c2c1" ?
Completion: 8

----------
Let's look at some compounds and their measured Selective Index CC50/EC50 CEM.
System: CEM cells
ASSAY_NOTES: Cytotoxicity assay
Assay type: cell-based, human

Recorded results for 3 compounds are shown here.
smiles_record=c1nc2c(NCCc3ccc(CNCCCNC4CCCCC4)cc3)nc(N3CCNCC3)nc2[nH]1 readout_type="Selective Index CC50/EC50 CEM" result=15065
smiles_record=COc1cc2nc(NCc3ccc(CNCCCNC4CCCCCC4)cc3)nc(NC3CCNCC3)c2cc1OC readout_type="Selective Index CC50/EC50 CEM" result=376
smiles_record=COc1ccc2nc(NCc3ccc(CNCCCN4CCCCC4)cc3)nc(NC3CCNCC3)c2c1 readout_type="Selective Index CC50/EC50 CEM" result=196

// next item, Selective Index CC50/EC50 CEM requested
Prompt: Query: Selective Index CC50/EC50 CEM; subject: "COc1ccc2c(NC3CCNCC3)nc(NCc3ccc(CNCCCN4CCCCC4)cc3)nc2c1"
Completion: 511

----------
MEASURED_TARGET: CCR5 (Homo sapiens)
Sequence (P51681 whole entry, species assumed): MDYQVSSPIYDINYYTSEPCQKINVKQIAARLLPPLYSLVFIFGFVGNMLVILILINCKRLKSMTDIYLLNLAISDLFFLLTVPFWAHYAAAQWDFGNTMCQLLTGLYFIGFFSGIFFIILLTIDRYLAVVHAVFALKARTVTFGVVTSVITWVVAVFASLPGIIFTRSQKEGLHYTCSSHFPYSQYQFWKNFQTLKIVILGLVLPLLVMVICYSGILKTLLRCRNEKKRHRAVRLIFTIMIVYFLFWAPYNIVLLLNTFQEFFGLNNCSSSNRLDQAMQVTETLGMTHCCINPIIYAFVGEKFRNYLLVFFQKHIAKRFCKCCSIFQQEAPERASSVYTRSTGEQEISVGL
ASSAY_NOTES: CCR5 radioligand binding assay
CONDITIONS_USED: read-out: IC50 CCR5
pIC50: −log10 of the molar value.
READOUT_TYPE: pIC50

Prompt: # get_value(readout= pIC50, system= CCR5 (Homo sapiens)) for "c1nc2c(NCc3ccc(CCNCCCNC4CCCCC4)cc3)nc(N3CCNCC3)nc2[nH]1"
Completion: < 5.00

----------
MEASURED_TARGET: CCR4 (Homo sapiens)
Sequence (P51679 1-360): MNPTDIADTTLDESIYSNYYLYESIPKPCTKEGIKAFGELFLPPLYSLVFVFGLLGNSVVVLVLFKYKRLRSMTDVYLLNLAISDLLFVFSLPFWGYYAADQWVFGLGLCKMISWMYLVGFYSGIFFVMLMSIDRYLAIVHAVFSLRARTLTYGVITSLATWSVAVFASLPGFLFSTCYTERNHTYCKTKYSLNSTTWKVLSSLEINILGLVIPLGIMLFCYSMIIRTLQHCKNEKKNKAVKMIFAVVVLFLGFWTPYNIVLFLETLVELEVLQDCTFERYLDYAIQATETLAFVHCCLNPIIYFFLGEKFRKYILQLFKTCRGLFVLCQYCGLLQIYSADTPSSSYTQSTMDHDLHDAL
ASSAY_NOTES: CCR4 radioligand binding assay
pIC50: −log10 of the molar value.
READOUT_TYPE: pIC50

Prompt: Tell me the measured pIC50 of c1cc(CNCCCNC2CCCCC2)cc(CNc2nc(N3CCNCC3)nc3[nH]cnc23)c1 [Compound 25] , please.
Completion: < 5.00

----------
Let's look at some compounds and their measured selectivity ratio at 72 h.
ASSAY_NOTES: Cytotoxicity assay
Type: cell-based
CONDITIONS_USED: human, TZM-bl cells
Give only the figure.

smiles_record=COc1cc2nc(NCc3ccc(CNCCCNC4CCCCC4)cc3)nc(NC3CCNCC3)c2cc1OC numeric_readout=1060

Now for the compound whose selectivity ratio at 72 h we want.
Prompt: What measured selectivity ratio at 72 h goes with "COc1ccc2c(NC3CCNCC3)nc(NCc3ccc(CNCCCNC4CCCCC4)cc3)nc2c1" ?
Completion: 1260

----------
ASSAY_NOTES: Cytotoxicity assay
Format: cell-based
CONDITIONS_USED: human, TZM-bl cells
# note: boundary value 1000 maps to N; selectivity ratio at 72 h below it maps to Y

Observe how each entry below is paired with its result.
smiles_record=c1cc(CNCCCNC2CCCCC2)cc(CNc2nc(N3CCNCC3)nc3[nH]cnc23)c1 classification=N
smiles_record=c1cc(CNCCCNC2CCCCC2)nc(CNc2nc(N3CCNCC3)nc3[nH]cnc23)c1 classification=N
smiles_record=Cn1cnc2c(NCc3ccc(CNCCCNC4CCCCC4)cc3)nc(N3CCNCC3)nc21 classification=N
smiles_record=COc1cc2nc(NCc3ccc(CNCCCN4CCCCC4)cc3)nc(NC3CCNCC3)c2cc1OC classification=N
smiles_record=COc1ccc2c(NC3CCNCC3)nc(NCc3ccc(CNCCCNC4CCCCCC4)cc3)nc2c1 classification=Y
smiles_record=CN1CCN(c2nc(NCc3ccc(CNCCCNC4CCCCC4)cc3)c3ncn(C)c3n2)CC1 classification=N

Prompt: I'd appreciate it if you could check whether "c1nc2c(NCc3cncc(CNCCCNC4CCCCC4)c3)nc(N3CCNCC3)nc2[nH]1" has selectivity ratio at 72 h smaller than 1000.
Completion: N

Prompt: Okay, and "c1nc2c(NCc3ccc(CNCCCNC4CCCCC4)cc3)nc(N3CCNCC3)nc2[nH]1" ?
Completion: N

Prompt: Follow-up entry: "COc1ccc2nc(NCc3ccc(CNCCCNC4CCCCCC4)cc3)nc(NC3CCNCC3)c2c1"
Completion: Y

Prompt: Please answer likewise for "COc1ccc2nc(NCc3ccc(CNCCCNC4CCCCC4)cc3)nc(NC3CCNCC3)c2c1"
Completion: Y

----------
MEASURED_TARGET: CXCR2 (Homo sapiens)
Sequence (P25025 whole entry, species assumed): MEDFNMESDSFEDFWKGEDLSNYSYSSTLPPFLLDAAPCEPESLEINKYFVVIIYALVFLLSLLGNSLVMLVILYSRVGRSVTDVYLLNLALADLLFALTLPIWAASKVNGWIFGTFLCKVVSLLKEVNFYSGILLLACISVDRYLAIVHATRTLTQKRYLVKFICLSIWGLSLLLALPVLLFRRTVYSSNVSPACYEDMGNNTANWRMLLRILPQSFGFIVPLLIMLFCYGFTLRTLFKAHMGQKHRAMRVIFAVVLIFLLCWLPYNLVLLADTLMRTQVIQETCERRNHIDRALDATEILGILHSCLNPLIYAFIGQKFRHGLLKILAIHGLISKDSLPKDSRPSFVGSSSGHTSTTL
ASSAY_NOTES: CXCR2 radioligand binding assay
pIC50: −log10 of the molar value.
READOUT_TYPE: pIC50

Prompt: Returns the measured pIC50 for the input molecule. Input: "c1cc(CNCCCNC2CCCCC2)cc(CNc2nc(N3CCNCC3)nc3[nH]cnc23)c1"
Completion: < 5.00
